Recorded Papp B→A at 1 h by entry
PROTOCOL TEXT: Apparent permeability across basolateral to apical side in human Caco-2 cells measured after 1 hr by LC-MS/MS analysis
The response must be a number in ×10⁻⁶ cm/s with no trailing unit.

COc1ccccc1COC(=O)C1=C(C)N(C[C@H]2CCCO2)C(=O)C[C@H]1c1ccc(Cl)cc1 :: 0.4

Please turn your attention to the following entry.
So, COc1ccccc1COC(=O)C1=C(C)N(C[C@H]2CCCO2)C(=O)C[C@H]1c1ccc(Cl)nc1 ? Its Papp B→A at 1 h was 12.3

###

Recorded pEC50 by entry
EXPERIMENTAL SYSTEM: G-protein coupled bile acid receptor 1 (Homo sapiens, UniProt Q8TDU6)
PROTOCOL TEXT: Agonist activity at human TGR5 receptor expressed in HEK293 cells cotransfected with pCMV tag4b-TGR5 assessed as activation of intracellular cAMP production incubated overnight by luciferase reporter gene assay
Assay type: functional, cell-based
CONDITION DESCRIPTION: read-out: EC50
Formally, pEC50 is defined as -log10 of the concentration c, with c in mol/L.

Example entries begin here.
COCCN1C(=O)CC(c2ccc(Cl)cc2)C(C(=O)OCc2ccccc2OC)=C1C (single isomer, unassigned) :: 7.12
COc1ccccc1COC(=O)C1=C(C)N(C[C@H]2CCCO2)C(=O)C[C@H]1c1ccc(Cl)cc1 (racemic) :: 7.52
COCCN1C(=O)CC(c2ccc(Cl)cc2)C(C(=O)OCc2ccccc2Cl)=C1C (stereo unspecified) :: 6.52
COCCN1C(=O)CC(c2ccc(Cl)cc2)C(C(=O)OCc2ccccc2)=C1C (stereo unspecified) :: 6.30
COCCN1C(=O)CC(c2ccc(Cl)cc2)C(C(=O)NCc2ccccc2)=C1C (stereo unspecified) :: 4.89

Please turn your attention to the following entry.
So, COc1ccccc1COC(=O)C1=C(C)N(C[C@@H]2CCCO2)C(=O)C[C@H]1c1ccc(Cl)cc1 (racemic) ? Its pEC50 was 6.96

###

EXPERIMENTAL SYSTEM: UniProt Q80SS6
Sequence (Q80SS6 whole entry): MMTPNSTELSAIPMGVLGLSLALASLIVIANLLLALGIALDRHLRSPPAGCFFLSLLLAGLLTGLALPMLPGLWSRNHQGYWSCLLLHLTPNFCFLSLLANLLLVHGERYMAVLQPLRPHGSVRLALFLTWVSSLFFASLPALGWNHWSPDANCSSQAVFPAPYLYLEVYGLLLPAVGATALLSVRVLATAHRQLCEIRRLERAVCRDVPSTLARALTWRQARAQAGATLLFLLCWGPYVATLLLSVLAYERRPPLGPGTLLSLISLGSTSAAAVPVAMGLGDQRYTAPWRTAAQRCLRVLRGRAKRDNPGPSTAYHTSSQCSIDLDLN
PROTOCOL TEXT: Agonist activity at mouse TGR5 receptor expressed in HEK293 cells cotransfected with pCMV AC6-TGR5 assessed as activation of intracellular cAMP production incubated overnight by luciferase reporter gene assay
Type: functional, cell-based
CONDITION DESCRIPTION: read-out: EC50
Binarize EC50 at 1000 nM; below is Met, at or above is Not met.

COCCN1C(=O)CC(c2ccc(Cl)cc2)C(C(=O)OCC2CCCCC2)=C1C (stereo not given) :: Not met
COCCN1C(=O)CC(c2ccc(Cl)cc2)C(C(=O)OCc2c(C)cc(C)cc2C)=C1C (stereo not given) :: Met
CC1=C(C(=O)OCc2ccccc2)C(c2ccccc2OC(C)C)CC(=O)N1 (stereo not given) :: Not met
COCCN1C(=O)CC(c2ccc(Cl)cc2)C(C(=O)OCc2ccc(C(F)(F)F)cc2)=C1C (stereo not given) :: Met

Next up:
Query :: Determine whether this compound shows EC50 lower than 1000 nM (ties excluded): COCCN1C(=O)CC(c2ccc(Cl)cc2)C(C(=O)OCc2cccc(Cl)c2)=C1C (stereo not given)
Result :: Met

###

Recorded EC50 by entry
EXPERIMENTAL SYSTEM: G-protein coupled bile acid receptor 1 (Homo sapiens, UniProt Q8TDU6)
PROTOCOL TEXT: Agonist activity at human TGR5 receptor expressed in HEK293 cells cotransfected with pCMV tag4b-TGR5 assessed as activation of intracellular cAMP production incubated overnight by luciferase reporter gene assay
Format: functional, cell-based
CONDITION DESCRIPTION: read-out: EC50
The response must be a number in µM with no trailing unit.

COc1ccccc1COC(=O)C1=C(C)N(C[C@H]2CCCO2)C(=O)C[C@H]1c1ccc(Cl)cc1 :: 0.014

CC1=C(C(=O)OCc2ccccc2)C(c2ccc(C)cc2)CC(=O)N1 (stereo not given) on G-protein coupled bile acid receptor 1 (Homo sapiens, UniProt Q8TDU6) gives EC50 = 6.3

COc1ccccc1COC(=O)C1=C(C)N(C[C@H]2CCCO2)C(=O)C[C@@H]1c1ccc(Cl)nc1 on G-protein coupled bile acid receptor 1 (Homo sapiens, UniProt Q8TDU6) gives EC50 = 0.223

COc1ccccc1COC(=O)C1=C(C)N(C[C@@H]2CCCO2)C(=O)C[C@@H]1c1ccc(Cl)nc1 on G-protein coupled bile acid receptor 1 (Homo sapiens, UniProt Q8TDU6) gives EC50 = 0.429

COCCN1C(=O)CC(c2ccc(Cl)cc2)C(C(=O)OCc2cccc(C(=O)OC)c2)=C1C (stereo not given) on G-protein coupled bile acid receptor 1 (Homo sapiens, UniProt Q8TDU6) gives EC50 = 0.8

###

EXPERIMENTAL SYSTEM: G-protein coupled bile acid receptor 1 (Homo sapiens)
PROTOCOL TEXT: Agonist activity at human TGR5 receptor expressed in HEK293 cells cotransfected with pCMV tag4b-TGR5 assessed as activation of intracellular cAMP production incubated overnight by luciferase reporter gene assay
Type: functional, cell-based
CONDITION DESCRIPTION: read-out: EC50
Recorded log10 EC50 by entry
Values are log10 of EC50 in nM.

Example entries begin here.
COCCN1C(=O)CC(c2ccc(Cl)cc2)C(C(=O)OCC2CCCCC2)=C1C (stereo not given) :: 2.85
CC1=C(C(=O)OCc2ccccc2)C(c2ccc(C(F)(F)F)cc2)CC(=O)N1 (stereo not given) :: 3.08
COc1ccccc1COC(=O)C1=C(C)N(C[C@H]2CCCO2)C(=O)C[C@H]1c1ccc(Cl)nc1 :: 0.30
C=C(C)CN1C(=O)CC(c2ccc(Cl)cc2)C(C(=O)OCc2ccccc2)=C1C (stereo not given) :: 2.90
C=CCN1C(=O)CC(c2ccc(Cl)cc2)C(C(=O)OCc2ccccc2)=C1C (stereo not given) :: 2.90
COCCN1C(=O)CC(c2ccc(Cl)cc2)C(C(=O)OCc2ccc(C)cc2)=C1C (stereo not given) :: 2.48

So, COCCN1C(=O)CC(c2ccc(Cl)cc2)C(C(=O)OCCCc2ccccc2)=C1C (stereo not given) ? Its log10 EC50 was 2.90

So, COCCCN1C(=O)CC(c2ccc(Cl)cc2)C(C(=O)OCc2ccccc2OC)=C1C (stereo not given) ? Its log10 EC50 was 2.28

So, COCCN1C(=O)CC(c2ccc(Cl)cc2)C(C(=O)OCc2ccccc2C(F)(F)F)=C1C (stereo not given) ? Its log10 EC50 was 3.08

So, COCCN1C(=O)CC(c2ccc(Cl)cc2)C(C(=O)OCc2cccc(OC)c2)=C1C (stereo not given) ? Its log10 EC50 was 2.48

###

PROTOCOL TEXT: in vitro
CONDITION DESCRIPTION: CD-1, mouse, plasma
ATTRIBUTE MEASURED: half-life at 10 µM

So, COc1ccccc1COC(=O)C1=C(C)N(C[C@H]2CCCO2)C(=O)C[C@H]1c1ccc(Cl)nc1 ? Its half-life at 10 µM was > 6 h

###

PROTOCOL TEXT: in vitro
CONDITION DESCRIPTION: CD-1, mouse, liver microsomes
ATTRIBUTE MEASURED: microsomal CLint at 40 min, 1 µM (µL/min/mg)
The response must be a number in µL/min/mg with no trailing unit.

So, COc1ccccc1COC(=O)C1=C(C)N(C[C@H]2CCCO2)C(=O)C[C@H]1c1ccc(Cl)nc1 ? Its microsomal CLint at 40 min, 1 µM was 1310

###

PROTOCOL TEXT: physchem
CONDITION DESCRIPTION: buffer, pH 7.4
ATTRIBUTE MEASURED: solubility thermodynamic at 24 h (µM)
The response must be a number in µM with no trailing unit.

COc1ccccc1COC(=O)C1=C(C)N(C[C@H]2CCCO2)C(=O)C[C@H]1c1ccc(Cl)nc1 :: 38.2

Please turn your attention to the following entry.
So, COc1ccccc1COC(=O)C1=C(C)N(C[C@H]2CCCO2)C(=O)C[C@H]1c1ccc(Cl)cc1 ? Its solubility thermodynamic at 24 h was 2.6

###

Recorded Papp A→B at 1 h by entry
PROTOCOL TEXT: Apparent permeability across apical to basolateral side in human Caco-2 cells measured after 1 hr by LC-MS/MS analysis
The response must be a number in ×10⁻⁶ cm/s with no trailing unit.

COc1ccccc1COC(=O)C1=C(C)N(C[C@H]2CCCO2)C(=O)C[C@H]1c1ccc(Cl)cc1 :: 0.2

So, COc1ccccc1COC(=O)C1=C(C)N(C[C@H]2CCCO2)C(=O)C[C@H]1c1ccc(Cl)nc1 ? Its Papp A→B at 1 h was 22.5

###

EXPERIMENTAL SYSTEM: G-protein coupled bile acid receptor 1 (Homo sapiens)
Sequence (Q8TDU6 whole entry): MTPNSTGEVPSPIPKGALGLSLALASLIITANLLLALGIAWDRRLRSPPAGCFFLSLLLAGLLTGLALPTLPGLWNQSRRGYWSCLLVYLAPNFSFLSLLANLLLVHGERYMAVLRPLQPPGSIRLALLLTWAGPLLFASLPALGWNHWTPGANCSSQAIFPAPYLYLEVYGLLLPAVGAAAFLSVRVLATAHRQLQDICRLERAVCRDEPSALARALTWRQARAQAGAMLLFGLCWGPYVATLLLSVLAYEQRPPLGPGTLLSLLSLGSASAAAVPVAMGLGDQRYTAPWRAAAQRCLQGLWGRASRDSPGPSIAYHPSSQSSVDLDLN
PROTOCOL TEXT: Agonist activity at human TGR5 receptor expressed in HEK293 cells cotransfected with pCMV tag4b-TGR5 assessed as activation of intracellular cAMP production incubated overnight by luciferase reporter gene assay
Type: functional, cell-based
CONDITION DESCRIPTION: read-out: pEC50 (converted)
ATTRIBUTE MEASURED: EC50 (nM)
The response must be a number in nM with no trailing unit.

Example entries begin here.
COc1ccccc1COC(=O)C1=C(C)N(C[C@H]2CCCO2)C(=O)C[C@H]1c1ccc(Cl)cc1 (racemic) :: 25.1
COc1ccccc1COC(=O)C1=C(C)N(C[C@H]2CCCO2)C(=O)C[C@H]1c1ccc(Cl)cc1 :: 15.8
CC1=C(C(=O)OCc2ccccc2)C(c2ccc(Cl)cc2)CC(=O)N1CC1CCC1 (stereo not given) :: 316
COc1ccccc1COC(=O)C1=C(C)N(CC2CCCO2)C(=O)CC1c1ccc(Cl)nc1 (racemic; 77) :: 31.6

Please turn your attention to the following entry.
So, CC1=C(C(=O)OCc2ccccc2)C(c2ccc(Cl)cc2)CC(=O)N1C (stereo not given) ? Its EC50 was 631
